tested on: CCRF-CEM leukemia; experiment: NCI-60 one-dose screen, 48 h; conditions: 10 µM unless noted
About 83,000 compounds went through this panel and 20% of them were active in at least one assay; those are over-represented in the sample as a whole. Activity calls are given as the source filed them. The calls were made as follows: active = growth percent below 10; inactive = the rest.
Labels: 1.0 (active), 0.0 (inactive)

>>> assigned_label("CC[C@]12C=CCN3CC[C@]4(C(=C(C(=O)OC)C1)Nc1cc(OC)c(OC(C)=O)cc14)[C@@H]32")
1.0
>>> assigned_label("CC1=C(CCCOC(=O)CN)C2=C(C)C3(CC3)[C@@](C)(O)C(=O)C2=C1")
0.0
>>> assigned_label("O=C1NC(=O)C(=Cc2ccc(OCCCCC3CCCCC3)c(Cl)c2)C(=O)N1")
0.0
>>> assigned_label("NC(=O)C(Br)c1ccccc1 (centres undefined)")
0.0
>>> assigned_label("Cc1c(C)c([N+](=O)[O-])c(C)c(C)c1[N+](=O)[O-]")
0.0
>>> assigned_label("COc1cccc(C=NC(Cc2cnc[nH]2)C(=O)O)c1O (centres undefined)")
0.0
>>> assigned_label("COC(=O)[C@H](C[C@H](Cc1ccccc1)NC(=O)c1csc([C@@H](C[C@H](C(C)C)N(C)C(=O)[C@@H](NC(=O)[C@H]2CCCCN2C)C(C)C)OC(C)=O)n1)NC(=O)OCc1ccccc1")
1.0
>>> assigned_label("CCCCCCCC[n+]1ccc2ccccc2c1")
0.0
>>> assigned_label("CC(=O)OCC1O[C@@H]([S-])C(OC(C)=O)[C@H](OC(C)=O)[C@@H]1OC(C)=O.[Au+].c1ccc(CN2[CH-]N(Cc3ccccc3)C(c3ccccc3)=C2c2ccccc2)cc1")
1.0
>>> assigned_label("Nc1nnnc2nc[nH]c12")
1.0
>>> assigned_label("COc1cc(/C=N/C2=C(C#N)C(c3ccco3)c3c(c4cc(C)ccc4oc3=O)O2)cc(OC)c1OC (centres undefined)")
0.0
>>> assigned_label("COC(=O)[C@H](Cc1c[nH]c2ccccc12)NC(=O)[C@@H](OC)[C@@H]1Cc2cc3cc(OC4CC(OC5CC(O)C(O)C(C)O5)C(O)C(C)O4)c(C)c(O)c3c(O)c2C(=O)[C@H]1OC1CC(OC2CC(OC3CC(C)(O)C(O)C(C)O3)C(O)C(C)O2)C(O)C(C)O1 (some centres undefined)")
1.0
>>> assigned_label("Cc1cc(N(CCCl)CCCl)ccc1C=Nc1ccc(-c2csc(Cc3ccccc3)n2)cc1")
0.0
>>> assigned_label("COC(=O)[C@@]1(O)C[C@H]2O[C@]1(C)n1c3ccccc3c3c4c(c5c6ccccc6n2c5c31)C(=O)NC4")
1.0
>>> assigned_label("COc1cccc(/C=C/[N+](=O)[O-])c1")
0.0
>>> assigned_label("NC1CC2CCCCC2CC1(O)c1ccccc1 (centres undefined)")
0.0
>>> assigned_label("CN1CCCCC1C(C)(O)c1ccccc1 (centres undefined)")
0.0
>>> assigned_label("CC1(C)N=C(N)N=C(N)N1c1ccc(CCCCc2ccc(Cl)c(S(=O)(=O)F)c2)c(Cl)c1")
1.0
>>> assigned_label("CS(=O)(=O)CCN1CC2CCCC(C2)C1")
0.0
